# System name: panel of more than 300 wild-type and mutant kinases (313 kinase panel) (Homo sapiens)
# Sequence (P41743 1-596): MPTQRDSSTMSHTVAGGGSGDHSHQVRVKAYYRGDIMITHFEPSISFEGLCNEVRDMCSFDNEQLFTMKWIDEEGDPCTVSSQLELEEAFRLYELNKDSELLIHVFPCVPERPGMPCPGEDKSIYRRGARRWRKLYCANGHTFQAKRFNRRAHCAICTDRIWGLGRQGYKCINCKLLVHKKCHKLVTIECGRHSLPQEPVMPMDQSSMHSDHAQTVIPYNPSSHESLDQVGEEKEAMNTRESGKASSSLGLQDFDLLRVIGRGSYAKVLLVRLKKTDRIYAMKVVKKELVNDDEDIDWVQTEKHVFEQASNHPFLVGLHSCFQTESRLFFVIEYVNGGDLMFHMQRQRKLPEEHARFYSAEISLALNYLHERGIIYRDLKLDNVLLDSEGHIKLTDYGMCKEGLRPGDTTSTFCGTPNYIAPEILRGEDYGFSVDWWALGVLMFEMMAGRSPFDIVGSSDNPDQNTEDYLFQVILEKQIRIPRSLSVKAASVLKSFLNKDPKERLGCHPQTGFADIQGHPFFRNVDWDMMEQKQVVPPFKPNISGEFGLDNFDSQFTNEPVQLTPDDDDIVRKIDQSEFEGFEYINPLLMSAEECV
# Protocol summary: Kinase profiling in a biochemical assay panel (mobility shift assays and ELISA), %-inhibition at 1 μM; selectivity entropy
# Condition: kinase PKCι; 1 μM
Decide by %-inhibition of PKCι: equal to or exceeding 10% means 1, less means -1.

Examples from the recorded data:
[
  {
    "Compound": "Cc1ccc(C(=O)Nc2ccc(CN3CCN(C)CC3)c(C(F)(F)F)c2)cc1C#Cc1cnc2cccnn12 [ponatinib]",
    "Answer label": 1
  },
  {
    "Compound": "COc1cc2c(Nc3ccc(Br)cc3F)ncnc2cc1OCC1CCN(C)CC1 [vandetanib]",
    "Answer label": -1
  }
]

In: Could you please find out whether CC(C)(C)c1nc(-c2cccc(NS(=O)(=O)c3c(F)cccc3F)c2F)c(-c2ccnc(N)n2)s1 [dabrafenib] has %-inhibition of PKCι that meets 10% or exceeds it?
Out: 1

In: Would you mind doing O=S(=O)(c1cccc2cnccc12)N1CCCNCC1 [fasudil] as well?
Out: 1

In: Would you mind doing C[C@@H](Oc1cc(-c2cnn(C3CCNCC3)c2)cnc1N)c1c(Cl)ccc(F)c1Cl [crizotinib] as well?
Out: -1

In: Would you mind doing CNC(=O)c1cc(Oc2ccc(NC(=O)Nc3ccc(Cl)c(C(F)(F)F)c3)c(F)c2)ccn1 [regorafenib] as well?
Out: -1

Each recorded value in this set is attributed to paper PMC3961306.
